# System: U251 CNS
# METHOD NOTES: NCI-60 one-dose screen, 48 h (100 = growth as untreated, 0 = no growth, -100 = all killed)
# CONDITION CONTEXT: 10 µM unless noted
This is part of a sample that, as a whole, favours compounds with a hit. Of some 83,000 tested, about 20% had one in any assay. Calls of active or inactive are those of the source. The calls were made as follows: active = growth percent below 10; inactive = the rest.
ASSAY METRIC: growth

Example entries begin here.
| COMPOUND | TARGET UNDER TEST | growth |
| --- | --- | --- |
| Nc1ncc(-c2ccc3ncnc(N4CCc5cc(F)c(Cl)cc54)c3c2)cc1C=O | U251 CNS | 48.5% (inactive) |
| O=S(=O)(Nc1ccc(Br)cc1)c1ccc(-c2cnc(C3CC3)o2)cc1 | U251 CNS | 24.9% (inactive) |
| COc1c(O[C@@H]2OC(CO)[C@H](O)[C@H](O)C2O)cc2oc3cc(O)c(CC=C(C)C)c(O)c3c(=O)c2c1CC=C(C)C (stereo not given in full) | U251 CNS | 77.9% (inactive) |
| Cc1ccc(NC(=O)c2ccc(Nc3ncnc4c3cnn4-c3cccc(F)c3)cc2)cc1 | U251 CNS | 102% (inactive) |

Now for a further compound.
Q: Requested read-out growth, target or system U251 CNS, entry COc1ccc(S(=O)(=O)NC2c3ccccc3CC2O)cc1OC (stereo not given)
Result: 102% (inactive)

====

# Tested on: A498 renal
# METHOD NOTES: NCI-60 one-dose screen, 48 h (100 = growth as untreated, 0 = no growth, -100 = all killed)
# CONDITION CONTEXT: 10 µM unless noted
This is part of a sample that, as a whole, favours compounds with a hit. Of some 83,000 tested, about 20% had one in any assay.
// reported growth per item
// return numeric value only (unit: %, not printed)

| MOLECULE | TARGET UNDER TEST | DISPLAY UNIT | growth |
| --- | --- | --- | --- |
| Cc1ccc2c(c1)CC(O)CC1C(=O)N(CCO)CC(=O)N21 (centres undefined) | A498 renal | % | 99.4 |
| COc1ccc(-c2nc(SCCC(C)C)nc(N/N=C(/C)c3ccc(N)cc3)c2C#N)cc1 | A498 renal | % | 90.9 |
| Cn1nc(-c2ccc(Cl)cc2)nc2c(=O)n(C)c(=O)nc1-2 | A498 renal | % | -94.8 |
| CC(=O)/C(Br)=C/c1ccc(Br)o1 | A498 renal | % | 105 |
| COc1cccc(NC(=O)c2sc3nc(C)c(C(=O)c4ccccc4)cc3c2N)c1 | A498 renal | % | -2.09 |

Q: Which value of growth has been reported for `COc1ccc(C(=O)/C=C/c2ccc(C)cc2)cc1S(N)(=O)=O` in the records?
Result: 82.7

Q: What value of growth has been reported for the following molecule? C=C(CNCCO)[C@@H]1CC[C@]2(CO)CC[C@]3(C)[C@H](CC[C@@H]4[C@@]5(C)CCC(NCCO)C(C)(C)[C@@H]5CC[C@]43C)[C@@H]12 (some centres undefined)
Result: 75.3

Q: Look up growth for this molecule: `Cc1ccc(C(F)(F)F)cc1N1CCN(C(=O)[C@H]2C[C@H]2c2ccc(C(F)(F)F)nc2)CC1`
Result: 95.3

Q: Reported growth for `CC/C(=C(/c1ccc(Cl)cc1)c1ccc(OCCN2CCCC2)cc1)c1ccccc1` : what is it?
Result: 79.7
